TESTED_SYSTEM: human α2AAR (Homo sapiens)
Sequence (P08913 whole entry): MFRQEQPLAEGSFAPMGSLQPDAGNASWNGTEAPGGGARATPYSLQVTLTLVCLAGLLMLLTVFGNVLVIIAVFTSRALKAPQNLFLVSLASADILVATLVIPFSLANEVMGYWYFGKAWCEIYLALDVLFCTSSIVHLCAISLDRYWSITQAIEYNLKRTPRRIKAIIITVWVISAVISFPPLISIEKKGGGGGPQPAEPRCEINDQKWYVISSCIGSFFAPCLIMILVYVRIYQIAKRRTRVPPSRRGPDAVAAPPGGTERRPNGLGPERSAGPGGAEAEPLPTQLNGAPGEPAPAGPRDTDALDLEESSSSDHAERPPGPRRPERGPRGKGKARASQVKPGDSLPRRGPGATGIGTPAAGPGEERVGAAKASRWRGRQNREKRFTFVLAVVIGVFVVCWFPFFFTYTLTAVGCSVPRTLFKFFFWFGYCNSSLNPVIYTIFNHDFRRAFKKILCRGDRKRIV
METHOD_DESCRIPTION: Gαi BRET G protein activation assay
Type: cell-based
APPLIED_CONDITIONS: abstract
METRIC: pEC50
In textbook form, pEC50 equals minus log to base ten of the concentration in mol/L.

### Prompt Quick check: pEC50 of Clc1ccc2cccc(Nc3ccncc3)c2c1 ?
### Response 8.32

----------
TESTED_SYSTEM: human α2BAR (Homo sapiens)
Sequence (P18089 1-450): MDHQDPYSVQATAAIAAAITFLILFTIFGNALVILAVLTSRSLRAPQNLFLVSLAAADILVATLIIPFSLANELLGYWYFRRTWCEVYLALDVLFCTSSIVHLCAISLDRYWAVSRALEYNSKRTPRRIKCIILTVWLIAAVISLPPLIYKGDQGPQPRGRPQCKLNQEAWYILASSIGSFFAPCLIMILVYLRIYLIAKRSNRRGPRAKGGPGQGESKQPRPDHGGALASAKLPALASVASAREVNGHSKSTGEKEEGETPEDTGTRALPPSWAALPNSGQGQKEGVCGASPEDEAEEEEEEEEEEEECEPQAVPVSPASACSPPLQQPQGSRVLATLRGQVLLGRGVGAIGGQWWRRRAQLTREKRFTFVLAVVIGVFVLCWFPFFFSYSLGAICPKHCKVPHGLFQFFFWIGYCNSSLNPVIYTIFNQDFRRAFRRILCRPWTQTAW
METRIC: Kd (nM)
Report the value in nM with no unit label.

### Prompt Quick check: Kd of COC1(C2=NCCN2)COc2ccccc2O1 (stereo not shown) [[^3H]RX82,1002] ?
### Response 2.3

----------
Target chain: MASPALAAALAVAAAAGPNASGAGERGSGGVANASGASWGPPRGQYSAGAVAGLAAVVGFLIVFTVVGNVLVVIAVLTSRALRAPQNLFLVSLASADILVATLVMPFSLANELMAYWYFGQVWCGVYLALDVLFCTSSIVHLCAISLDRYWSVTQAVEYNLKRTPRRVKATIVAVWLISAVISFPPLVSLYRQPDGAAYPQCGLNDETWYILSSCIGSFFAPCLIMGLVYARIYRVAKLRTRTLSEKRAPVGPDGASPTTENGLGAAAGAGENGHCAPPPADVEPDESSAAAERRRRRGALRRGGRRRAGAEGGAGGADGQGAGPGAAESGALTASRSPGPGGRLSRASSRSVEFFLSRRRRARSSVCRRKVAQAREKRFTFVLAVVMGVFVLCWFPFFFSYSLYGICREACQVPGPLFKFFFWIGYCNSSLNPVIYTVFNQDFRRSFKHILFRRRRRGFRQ
METRIC: Kd (nM)
Report the value in nM with no unit label.

### Prompt Quick check: Kd of COC1(C2=NCCN2)COc2ccccc2O1 (stereo not shown) [[^3H]RX82,1002] ?
### Response 0.58

Hello, the source for this data is paper PMC10360211, in case you need it.
